- MEASUREMENT_DESCRIPTION: NCI Yeast Anticancer Drug Screen. Data for the mec2-1 strain (AID 157)
- SETUP_CONDITIONS: S. cerevisiae mec2-1 strain, at 50.0 µM (retest, dose inferred, filed as 5.0), active compounds read high
Compounds without any hit were thinned out: in the full panel of roughly 79,000, 15% have a hit.
Note that class boundaries on growth inhibition are c1: < 50%; c2: ≥ 50% and < 90%; c3: ≥ 90%

Solved entries (count: 6):
{"COMPOUND": "O=C1Oc2ccccc2C(=O)/C1=C/N1C(=O)/C(=C/c2ccc([N+](=O)[O-])cc2)SC1=S", "LABEL_VALUE": "c2"}
{"COMPOUND": "Cc1nn(C(=O)c2ccccc2O)c2c1C(c1ccco1)SC(N)=N2 (stereo not drawn)", "LABEL_VALUE": "c2"}
{"COMPOUND": "Cc1ccc(Nc2nc3c(s2)C(=O)c2ccccc2C3=O)c(C)c1", "LABEL_VALUE": "c3"}
{"COMPOUND": "Nc1ccc2c(c1)[nH]c(=O)c1cc(Cl)c(Cl)cc12", "LABEL_VALUE": "c2"}
{"COMPOUND": "CCCN(CCC)C(=O)CCC(C)=O", "LABEL_VALUE": "c1"}
{"COMPOUND": "Nc1ccc2nc(Nc3ccc(F)cc3)cnc2c1", "LABEL_VALUE": "c1"}

Classify this compound: CN(C)CCCN1c2cc(Cl)ccc2Sc2ccc3ccccc3c21 c3

###

- MEASUREMENT_DESCRIPTION: NCI Yeast Anticancer Drug Screen. Data for the mec2-1 strain (AID 157)
- SETUP_CONDITIONS: S. cerevisiae mec2-1 strain, at 50.0 µM (retest, dose inferred, filed as 5.0), active compounds read high
Compounds without any hit were thinned out: in the full panel of roughly 79,000, 15% have a hit.
growth inhibition values for the molecules below.
Unit % implied. Number only.

Guide cases for growth inhibition, answers given:
{"MOLECULE": "Cc1cc[c]([Sn]([Cl])([O][Sn]([Cl])([c]2ccc(C)cc2)[c]2ccc(C)cc2)[c]2ccc(C)cc2)cc1", "growth inhibition (%)": 55}
{"MOLECULE": "CCCc1nc2ccccc2c(=O)n1/N=C/c1ccccc1O", "growth inhibition (%)": -1}
{"MOLECULE": "N#Cc1ccc([N+](=O)[O-])cc1C#N", "growth inhibition (%)": 97}
{"MOLECULE": "CCOC(=O)C(=C=C=C(c1ccccc1)c1ccccc1)C(=O)OCC", "growth inhibition (%)": 17}

So what's the measured growth inhibition for this one? O=C(CBr)C1(Br)CCN(Cc2ccccc2)CC1 99

// growth inhibition lookup, key: O/N=C1/CCCC/C1=C/c1ccc(Cl)cc1 -53

Which value of growth inhibition has been reported for CCOC(=O)/C=C\c1c(Cl)n(-c2ccccc2)c(=O)n(-c2ccccc2)c1=O in the records? 99

I'd like to know its growth inhibition. The molecule in question is CCCC/C=C\CCCCCCCCCC1=C(O)C(=O)C=C(OC)C1=O 89

// returns reported growth inhibition for input CCCCCCCCCCCC(=O)NN 43

###

- MEASUREMENT_DESCRIPTION: NCI Yeast Anticancer Drug Screen. Data for the mec2-1 strain (AID 157)
- SETUP_CONDITIONS: S. cerevisiae mec2-1 strain, at 5.0 µM (retest, dose inferred, filed as 0.5)
About 79,000 compounds went through this panel and 15% of them were active in at least one assay; those are over-represented in the sample as a whole. The source made the active and inactive calls. Rule as the data show it: active = growth inhibition above about 70%; inactive = the rest.
Allowed answers: active, inactive

Before answering, review these 3 worked examples.
{"MOLECULE": "CC[N+](C)(CC)CCC(=O)/C=C/c1ccccc1", "LABEL_VALUE": "inactive"}
{"MOLECULE": "O=[N+]([O-])c1ccc(N/N=C/c2cccnc2)cc1", "LABEL_VALUE": "inactive"}
{"MOLECULE": "O=C(CCl)[O][Bi]([O]C(=O)CCl)([c]1ccccc1)([c]1ccccc1)[c]1ccccc1", "LABEL_VALUE": "inactive"}

Give the logged outcome of this assay for the following molecule: N#Cc1ccc2nc3ccc(N)cc3nc2c1 inactive

I'd appreciate the recorded outcome for CCC[CH2][Sn]([CH2]CCC)([O]C(=O)c1ccc(C)c(N)c1)[O]C(=O)c1ccc(C)c(N)c1 from this test. active

###

- MEASUREMENT_DESCRIPTION: NCI Yeast Anticancer Drug Screen. Data for the bub3 strain (AID 167)
- SETUP_CONDITIONS: S. cerevisiae bub3 mutant strain, at 50.0 µM (retest, dose inferred, filed as 5.0), active compounds read high
This is part of a sample that, as a whole, favours compounds with a hit. Of some 79,000 tested, about 15% had one in any assay.
Each entry below carries its recorded growth inhibition.
Respond with the bare value in %.

{"COMPOUND": "CC(=O)Oc1ccc(C(C)(C)CC(C)(C)C)cc1", "READOUT_NUMBER": 55}

Entry CCCCCCCCCCN1Cc2ccccc2C1 : reported growth inhibition = ? 99

Fill in the blank: the reported growth inhibition of CN1C(=O)c2ccccc2C1(c1ccccc1)c1ccccc1 is ____. 62

Fill in the blank: the reported growth inhibition of CN(C)/C(N)=N\c1nc2ccc(Cl)cc2s1 is ____. 12

// lookup growth inhibition for COc1ccc2c(c1OC)C1=C(C2=O)c2cc3c(cc2CCN1)OCO3 51

Suppose we examine the compound O=C(Cn1nnc2ccccc21)N1CCN(c2ccccc2)CC1 ; what growth inhibition value has been reported? 1

###

- MEASUREMENT_DESCRIPTION: NCI Yeast Anticancer Drug Screen. Data for the sgs1 mgt1 strain (AID 161);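 further: 0% = growth of cultures given vehicle only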
- SETUP_CONDITIONS: S. cerevisiae sgs1 mgt1 strain, at 50.0 µM (retest, dose inferred, filed as 5.0), active compounds read high
The panel holds about 79,000 compounds, 15% with a hit somewhere; the sample as a whole holds those more often.
Known growth inhibition of a selection of compounds
Value expressed in %; do not type the unit.

{"COMPOUND": "O=c1oc2ccccc2c(O)c1/C=N/C(=S)NCCc1ccccc1", "VALUE_UNITS": "%", "growth inhibition": 92}
{"COMPOUND": "CCN(CC)CCCC(C)Nc1cc(O)c2c(c1O)C(=O)c1ccccc1C2=O (stereo unspecified)", "VALUE_UNITS": "%", "growth inhibition": 99}
{"COMPOUND": "O=C(Cn1nnc2ccccc21)N1CCN(c2ccccc2)CC1", "VALUE_UNITS": "%", "growth inhibition": 5}
{"COMPOUND": "O=S(=O)(NC1CCCCC1)c1ccc2c(c1)OCCOCCOCCOCCO2", "VALUE_UNITS": "%", "growth inhibition": 63}
{"COMPOUND": "CCOc1ccc2c(ccc(/C=C\\c3cc(C)c4cccnc4c3O)[n+]2C)c1", "VALUE_UNITS": "%", "growth inhibition": 93}
{"COMPOUND": "Clc1ccc(OCCC(Cn2ccnc2)c2ccc(Cl)cc2Cl)c(Cl)c1 (stereo unspecified)", "VALUE_UNITS": "%", "growth inhibition": 98}
{"COMPOUND": "COc1ccc(CCC2(C)OCCC(C)O2)cc1 (stereo unspecified)", "VALUE_UNITS": "%", "growth inhibition": 91}
{"COMPOUND": "Cc1cc(C)c(O)c(Cc2cc(Cl)cc(Cc3cc(C)cc(C)c3O)c2O)c1", "VALUE_UNITS": "%", "growth inhibition": 93}

Which growth inhibition value is on record for N#CC(=C1C=CC(=NO)C=C1)c1cccc2ccccc12 ? 92

Value lookup for growth inhibition; key = O=C1OC(c2cccc(Cl)c2)=N/C1=C\C=C/c1ccccc1 1

Request the reported growth inhibition associated with Nc1ncnc2nc[nH]c12.[Ag] 99

###

- MEASUREMENT_DESCRIPTION: NCI Yeast Anticancer Drug Screen. Data for the bub3 strain (AID 167)
- SETUP_CONDITIONS: S. cerevisiae bub3 mutant strain, at 50.0 µM
The panel holds about 79,000 compounds, 15% with a hit somewhere; the sample as a whole holds those more often. Activity calls are given as the source filed them. Cut-off read from the data, not from the text of the source: active = growth inhibition above about 70%; inactive = the rest.
Outcomes you can answer with include only these: 1 for active, -1 for inactive

Reference set, count: 6
{"MOLECULE": "O=C1C=C(c2cccc(-c3ccccc3)c2)CCC1", "LABEL_VALUE": 1}
{"MOLECULE": "OC1CCC(COC(c2ccccc2)(c2ccccc2)c2ccccc2)O1 (configuration not stated)", "LABEL_VALUE": 1}
{"MOLECULE": "O=P1(Cc2ccccc2)c2ccccc2-c2ccccc21", "LABEL_VALUE": 1}
{"MOLECULE": "C/C(=N\\NC(=S)N1CCCC1)c1cnccn1", "LABEL_VALUE": 1}
{"MOLECULE": "O=C1CSc2ccccc2-n2cccc21", "LABEL_VALUE": -1}
{"MOLECULE": "OCCOc1ccc2ccccc2c1-c1c(OCCOc2ccc3ccccc3c2-c2c(OCCO)ccc3ccccc23)ccc2ccccc12", "LABEL_VALUE": -1}

Please let me know the test result on file for NC(=O)C12OC3CC(CC(C3)O1)O2 . -1

Tell me the recorded outcome of this test for Cc1ccc(C(=O)/C=C/c2ccco2)c(C)c1 . -1
